Reference source for all entries: ChEMBL document CHEMBL4229544

Tested on: Staphylococcus epidermidis
MEASUREMENT_DESCRIPTION: Antibacterial activity against Staphylococcus epidermidis ATCC 12228
Type: functional
Kindly state MIC for each of the entries shown.

MIC lookup needed for CNc1cc(F)cc2c1[nH]c1nc(CNC(=O)c3cnco3)nc(N3CCC(N(C)C)C3)c12 (centres undefined) , thanks.
0.12 µg/mL

MIC lookup needed for CNc1cc(F)cc2c1[nH]c1nc(CNC(=O)c3cnco3)nc(N3CCC(NC)C3)c12 (centres undefined) , thanks.
2 µg/mL

MIC lookup needed for CNc1cc(F)cc2c1[nH]c1nc(CNC(=O)c3cnco3)nc(N3CCC(N)C3)c12 (centres undefined) , thanks.
1 µg/mL

MIC lookup needed for CNc1cc(F)cc2c1[nH]c1nc(CNC(=O)c3cocn3)nc(N3CCC(N)C3)c12 (centres undefined) , thanks.
1 µg/mL
